The compounds listed here are annotated with their inhibition.
Molecular target: Solute carrier family 2, facilitated glucose transporter member 1 (Homo sapiens)
Test: ST_JUDE_LEISH: Cytotoxicity at 2uM final concentration against transgenic Leishmania Mexicana promastigotes LmGLUT1 that are glucose transport deficient and complemented with the human glucose transporter GLUT1. Activity is measured by DNA content using SYBR green in vitro
Assay type: functional
Measured quantity: inhibition (%)

| Compound | Tgt | Measured quantity | Measured |
| --- | --- | --- | --- |
| Cc1cc(N2CCCCC2)nc2ccc(NC(=O)c3cncc(Br)c3)cc12 | Solute carrier family 2, facilitated glucose transporter member 1 (Homo sapiens) | inhibition | 10.7 |
| CC[C@H]1CN2CCc3cc(OC)c(OC)cc3[C@@H]2C[C@@H]1CC1=NCCc2c1[nH]c1ccc(OCc3ccccc3)cc21 | Solute carrier family 2, facilitated glucose transporter member 1 (Homo sapiens) | inhibition | 0.63 |
| CC1CCc2c(C(=O)N3CCc4ccccc4C3)csc2C1 (stereo not given) | Solute carrier family 2, facilitated glucose transporter member 1 (Homo sapiens) | inhibition | 1.39 |
| O=C(Nc1ccccc1)N(Cc1ccc(-c2ccc(CNC3CCCC3)cc2)cc1)C1CCN(Cc2ccccc2)CC1 | Solute carrier family 2, facilitated glucose transporter member 1 (Homo sapiens) | inhibition | 4.17 |
| COc1ccccc1CNC(=O)c1cc(OC)c(OC)cc1NC(=O)c1cccs1 | Solute carrier family 2, facilitated glucose transporter member 1 (Homo sapiens) | inhibition | 10.5 |

###

Biological target: Solute carrier family 2, facilitated glucose transporter member 1 (Homo sapiens)
Test: ST_JUDE_LEISH: Cytotoxicity at 2uM final concentration against transgenic Leishmania Mexicana promastigotes LmGLUT1 that are glucose transport deficient and complemented with the human glucose transporter GLUT1. Activity is measured by DNA content using SYBR green in vitro
Type: functional
Measured quantity: inhibition (%)

| Compound | Measured quantity | Value unit | Measured |
| --- | --- | --- | --- |
| COc1cc(CN2CCC(NC(=O)[C@H](Cc3ccccc3)NC(=O)Nc3ccc(Oc4ccccc4)cc3)C2)ccc1O (stereo not given in full) | inhibition | % | 0.58 |
| Oc1ccccc1N1CCN(c2ccc(-c3nc4ccccc4[nH]3)cn2)CC1 | inhibition | % | 2.48 |
| Cc1ccc2[nH]c(C3CCCNC3)c(-c3ccncc3)c2c1 (stereo not given) | inhibition | % | 9.43 |
| COc1ccc2nccc([C@@H](O)CN3CCC(NC(=O)C(c4ccccc4C)N4CCC(Cc5ccccc5)CC4)CC3)c2c1 (stereo not given in full) | inhibition | % | 1.73 |
| CCCN1CCN(c2cc(NCC)c3c4c(onc24)-c2ccccc2C3=O)CC1 | inhibition | % | 7.98 |

###

The compounds listed here are annotated with their inhibition.
Molecular target: Glucose transporter (Leishmania mexicana)
Assay: ST_JUDE_LEISH: Cytotoxicity at 2uM final concentration against transgenic Leishmania Mexicana promastigotes LmGT2 that are glucose transport deficient and complemented with the L. Mexicana glucose transporter 2. Activity is measured by DNA content using SYBR green in vitro
Assay type: functional
Measured quantity: inhibition (%)

| Compound | Measured |
| --- | --- |
| S=C(NCCCCCN1CCC(c2c[nH]c3ccccc23)CC1)Nc1ccc(Cl)c(Cl)c1 | 2.15 |
| Cc1cc(C(=O)NCc2ccc(-c3c(C)noc3C)cc2)n(-c2ccc(Cl)cc2)n1 | 2.6 |
| CN1CCN(c2cc3c(cc2Cl)CCN3C(=O)Cc2ccc(Cl)c(NC(=O)Nc3cccc(C#N)c3)c2)CC1 | -0.22 |
| O=C(Nc1ccc(C(F)(F)F)cc1)c1cc(Br)cnc1NCCCn1ccnc1 | -3.55 |
| CC(=O)N(C)C1CCN(Cc2ccc(-c3cccc(-c4nc5cc(F)ccc5[nH]4)c3)cc2)C1 (stereo not given) | 1.68 |
